Exercise: state measured EC50 Value (M), JKR9 reporter activation by peptide-loaded T2 cells for each of the binders provided.
target: MAGE-A1 target antigen peptide … presented by HLA-A*02:01 on cells (human); experiment: cell-based or functional assay
Give bare numbers, in M.

The following binders have reported results that may help.
[[record]]
binder = "ht27M1285 (TCR, V domains shown) Valpha: GEDVEQSLFLSVREGDSSVINCTYTDSSSTYLYWYKQEPGAGLQLLTYIFSFMDMKQDQRLTVLLNKKDKHLSLRIADTQTGDSAIYFCAGSGGGTDKLIFGTGTRLQVFP Vbeta: GAVVSQHPSWVICKSGTSVKIECRSLDFQATTMFWYRQFPKQSLMLMATSNEGSKATYEQGVEKDKFLINHASLTLSTLTVTSAHPEDSSFYICSAREPGQGPYEQYFGPGTRLTVT"
valuemeasured = "5.93e-08"

[[record]]
binder = "ht27M1360 (TCR, V domains shown) Valpha: GEDVEQSLFLSVREGDSSVINCTYTDSSSTYLYWYKQEPGAGLQLLTYIFGFDTMKQDQRLTVLLNKKDKHLSLRIADTQTGDSAIYFCAGSGGGTDKLIFGTGTRLQVFP Vbeta: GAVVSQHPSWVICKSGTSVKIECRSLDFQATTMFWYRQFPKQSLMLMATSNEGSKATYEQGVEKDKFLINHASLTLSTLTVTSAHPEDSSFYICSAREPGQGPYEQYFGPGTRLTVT"
valuemeasured = "6.04e-08"


Req: Which EC50 Value (M), JKR9 reporter activation by peptide-loaded T2 cells is reported for this binder? ht27M1019 (TCR, V domains shown) Valpha: GEDVEQSLFLSVREGDSSVINCTYTDSSSTYLYWYKQEPGAGLQLLTYIFSNMDMKQDQRLTVLLNKKDKHLSLRIADTQTGDSAIYFCAGSGGGTDKLIFGTGTRLQVFP Vbeta: GAVVSQHPSWVICKSGTSVKIECRSLDFQATTMFWYRQFPKQSLMLMATSDYQTCVTYEQGVEKDKFLINHASLTLSTLTVTSAHPEDSSFYICSAREPGSGPFEQYFGPGTRLTVT
Resp: 2.21e-08
